Protein target, amino acids: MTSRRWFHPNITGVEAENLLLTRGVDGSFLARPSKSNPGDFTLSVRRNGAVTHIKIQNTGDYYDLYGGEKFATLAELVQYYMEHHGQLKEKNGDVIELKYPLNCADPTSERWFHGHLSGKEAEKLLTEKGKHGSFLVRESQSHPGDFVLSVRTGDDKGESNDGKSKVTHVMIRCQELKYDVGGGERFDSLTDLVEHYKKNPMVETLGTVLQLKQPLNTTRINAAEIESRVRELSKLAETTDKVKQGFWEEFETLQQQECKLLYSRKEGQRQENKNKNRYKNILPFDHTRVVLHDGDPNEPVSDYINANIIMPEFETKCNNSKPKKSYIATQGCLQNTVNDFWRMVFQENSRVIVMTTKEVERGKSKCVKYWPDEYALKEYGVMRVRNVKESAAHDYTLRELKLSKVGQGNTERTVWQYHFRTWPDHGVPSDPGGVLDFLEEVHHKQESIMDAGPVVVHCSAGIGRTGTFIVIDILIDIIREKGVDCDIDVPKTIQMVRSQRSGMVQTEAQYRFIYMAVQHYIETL
pIC50: −log10 of the molar value.
Measured pIC50 by item

Cc1cc2n(n1)CC1(CCN(c3ncc(Sc4ccnc(N)c4Cl)n4cncc34)CC1)[C@@H]2N [Example 23]: ≥ 7.30
Cc1nccc(Sc2cnc(N3CCC4(CC3)Cn3nccc3[C@H]4N)cn2)c1F [Example 81]: ≥ 7.30
Nc1nccc(Sc2cnc(N3CCC4(CC3)Cn3nccc3[C@H]4N)c3cncn23)c1Cl [Example 19]: ≥ 7.30
Nc1nc(N2CCC3(CC2)Cn2nccc2[C@H]3N)cnc1Sc1cccnc1C(F)(F)F [Example 3]: ≥ 7.30
N[C@@H]1c2ccnn2CC12CCN(c1cnc(Sc3ccn4ccnc4c3Cl)cn1)CC2 [Example 31]: ≥ 7.30
Nc1nccc(Sc2cnc(N3CCC4(CC3)Cn3ncc(Br)c3[C@H]4N)cn2)c1Cl [Example 8]: ≥ 7.30
NC(=O)c1cnn(-c2nccc(Sc3cnc(N4CCC5(CC4)Cn4nccc4[C@H]5N)cn3)c2Cl)c1 [Example 65]: ≥ 7.30
Cn1cc2c(Cl)c(-c3n[nH]c4nc(N5CCC6(CC5)Cn5nccc5[C@H]6N)cnc34)ccc2n1 [Example 70]: ≥ 7.30

Recorded result, N[C@@H]1c2ccnn2CC12CCN(c1cnc(SC3=C(Cl)C4=NC(=O)CN4C=C3)cn1)CC2 [Example 58] , pIC50: ≥ 7.30

Recorded result, Nc1nc(N2CCC3(CC2)Cn2nncc2[C@H]3N)cnc1Sc1cccnc1C(F)(F)F [Example 36] , pIC50: ≥ 7.30

Recorded result, Nc1nccc(Sc2cnc(N3CCC4(CC3)Cn3nc5c(c3C4O)CCC5)c3cncn23)c1Cl (stereo not shown) [Example 22] , pIC50: < 6.52

----------
- target or system: SHP2 (Avi-G4SG4S-PTPN11(1-525)) (Homo sapiens, UniProt Q06124)
- Construct: (Avi-G4SG4S-PTPN11(1-525)); purchased Viva Biotech Ltd
- assay notes: Binding kinetic assay by surface plasmon resonance (SPR)
- condition set: Biacore T200, single cycle kinetic, 1:1 Langmuir binding model, triplicate
- Description: A binding assay for measuring SHP2 inhibitors binding kinetic was developed using a Biacore T200 Instrument (Cytiva, Sweden). […] Data analysis was performed by Biacore T200 Evaluation software (Cytiva), and kinetic parameters were evaluated by a global fitting according to a 1:1 Langmuir binding model. Each molecule was tested in triplicate on separate flow channels.
property measured: koff (s⁻¹)

Cc1cc2n(n1)CC1(CCN(c3cnc(Sc4ccnc(N)c4Cl)cn3)CC1)[C@@H]2N: 3.4e-05
N[C@@H]1c2c(F)cnn2CC12CCN(c1cnc(Sc3ccn4ccnc4c3Cl)cn1)CC2: 6.9e-05
Nc1nccc(Sc2cnc(N3CCC4(CC3)Cn3nncc3[C@H]4N)cn2)c1Cl: 0.000942
Nc1nccc(Sc2cnc(N3CCC4(CC3)Cn3nccc3[C@H]4N)c3cncn23)c1Cl: 0.000183
Nc1nccc(Sc2cnc(N3CCC4(CC3)Cn3ncc(F)c3[C@H]4N)cn2)c1Cl: 0.000104
Nc1nc(N2CCC3(CC2)Cn2ncc(Cl)c2[C@H]3N)cnc1Sc1ccnc(N)c1Cl: 5.88e-05
Nc1nccc(Sc2cnc(N3CCC4(CC3)Cn3ncc(Cl)c3[C@H]4N)cn2)c1Cl: 0.000314
Nc1nccc(Sc2cnc(N3CCC4(CC3)Cn3nc5c(c3[C@H]4N)COC5)cn2)c1Cl: 3.3e-05

1 = Cn1cc2c(Cl)c(Sc3cnc(N4CCC5(CC4)Cn4nccc4[C@H]5N)n4ccnc34)ccc2n1
2 = Nc1nccc(Sc2cnc(N3CCC4(CC3)Cn3ncc(Br)c3[C@H]4N)cn2)c1Cl
Query: // returns 1 or 2 , whichever has the lower koff Kindly state the label of the option you pick.
Result: 1

----------
- target or system: SHP-2 enzyme (Met1-Leu525) (Homo sapiens, UniProt Q06124)
pIC50: −log10 of the molar value.
Measured pIC50 by item

Some compounds with known pIC50 results, for comparison:
N[C@@H]1c2ccnn2CC12CCN(c1ccc(Oc3cccc(Cl)c3Cl)nc1)CC2: 6.52 to 7.30
Nc1nccc(Sc2cnc(N3CCC4(CC3)Cn3ncc(F)c3[C@H]4N)cn2)c1Cl: ≥ 7.30
N#Cc1cn2ccc(Sc3cnc(N4CCC5(CC4)Cn4nccc4[C@H]5N)cn3)c(Cl)c2n1: ≥ 7.30
Nc1nccc(Sc2cnc(N3CCC4(CC3)Cn3cnnc3[C@H]4N)cn2)c1Cl: 6.52 to 7.30

Recorded result, Nc1nccc(Sc2cnc(N3CCC4(CC3)Cn3nc(CO)c(CO)c3[C@H]4N)c3cncn23)c1Cl , pIC50: 6.52 to 7.30

Recorded result, Cc1cc(C)n(-c2nccc(Sc3cnc(N4CCC5(CC4)Cn4nccc4[C@H]5N)cn3)c2Cl)n1 , pIC50: ≥ 7.30

Recorded result, Cc1cc2n(n1)CC1(CCN(c3cnc(Sc4ccnc(N)c4Cl)cn3)CC1)[C@@H]2N , pIC50: ≥ 7.30
